Target: STAT3 (Homo sapiens)
Construct: This cell line is a clone created by using CRISPR-Cas9 to fuse HiBiT to the 3′ end of STAT3 in HeLa cells; host or cells: STAT3-HiBiT KI HeLa cell line (CRISPR-Cas9 knock-in clone)
Sequence (P40763 whole entry): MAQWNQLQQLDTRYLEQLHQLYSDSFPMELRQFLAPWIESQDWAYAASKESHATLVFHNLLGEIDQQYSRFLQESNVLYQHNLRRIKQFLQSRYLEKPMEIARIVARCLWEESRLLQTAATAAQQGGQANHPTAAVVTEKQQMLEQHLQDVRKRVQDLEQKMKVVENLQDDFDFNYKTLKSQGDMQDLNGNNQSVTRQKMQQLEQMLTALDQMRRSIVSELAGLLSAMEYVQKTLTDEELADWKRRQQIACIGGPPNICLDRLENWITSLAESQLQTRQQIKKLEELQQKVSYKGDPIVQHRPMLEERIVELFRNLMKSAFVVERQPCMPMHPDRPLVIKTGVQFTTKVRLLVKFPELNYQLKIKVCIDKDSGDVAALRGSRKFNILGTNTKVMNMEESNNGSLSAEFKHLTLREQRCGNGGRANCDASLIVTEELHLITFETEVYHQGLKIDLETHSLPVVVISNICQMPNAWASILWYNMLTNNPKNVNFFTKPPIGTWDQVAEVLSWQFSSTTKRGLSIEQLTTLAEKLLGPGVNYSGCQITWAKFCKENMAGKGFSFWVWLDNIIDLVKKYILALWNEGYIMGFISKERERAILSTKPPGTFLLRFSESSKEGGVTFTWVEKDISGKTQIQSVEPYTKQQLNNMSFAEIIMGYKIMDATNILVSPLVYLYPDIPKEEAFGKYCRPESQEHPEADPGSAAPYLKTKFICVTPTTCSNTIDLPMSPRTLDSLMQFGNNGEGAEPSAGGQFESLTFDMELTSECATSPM
Experiment: HiBiT assay, STAT3 degradation in STAT3-HiBiT KI HeLa cells
Type: cell-based
Conditions: 24 h, read-out: STAT3 Degradation (HeLa 24 h HiBit) DC50

{"sample_smiles": "CC(=O)N1CC[C@H]2CC[C@@H](C(=O)N[C@@H](CCC(N)=O)COc3cccc(CCCc4cn(C[C@H](NC(=O)[C@@H]5C[C@@H](O)CN5C(=O)[C@@H](n5cc(C6CC6)nn5)C(C)(C)C)c5ccc(-c6scnc6C)cc5)nn4)c3Cl)N2C(=O)[C@@H](NC(=O)c2cc3cc(C(=O)P(=O)(O)O)ccc3[nH]2)C1", "DC50": "< 10 nM"}
{"sample_smiles": "Cc1ncsc1-c1ccc([C@H](C)NC(=O)[C@@H]2C[C@@H](O)CN2C(=O)[C@@H](n2cc(CC(=O)N3CC[C@H]4CC[C@@H](C(=O)N[C@@H](CCC(N)=O)C(=O)NC(c5ccccc5)c5ccccc5)N4C(=O)[C@@H](NC(=O)c4cc5cc(C(=O)P(=O)(O)O)ccc5[nH]4)C3)nn2)C(C)(C)C)cc1", "DC50": "> 1000 nM"}
{"sample_smiles": "CC(=O)N1CC[C@H]2CC[C@@H](C(=O)N[C@@H](CCC(N)=O)COc3cccc(CCCc4cn([C@H](C(=O)N5C[C@H](O)C[C@H]5C(=O)N[C@@H](C)c5ccc(-c6scnc6C)cc5)C5CCOCC5)nn4)c3Cl)N2C(=O)[C@@H](NC(=O)c2cc3cc(C(=O)P(=O)(O)O)ccc3[nH]2)C1", "DC50": "< 10 nM"}
